Tested on: SF-539
Assay: NCI tumour cell line growth inhibition, 48 h
Active and inactive are the calls of the source. Cut-off read from the data, not from the text of the source: active = GI50 up to about 1.1 µM and inactive = higher.
// classify into True = active, False = inactive

Worked examples, 2 molecules total:
1. COc1ccc(C2c3cc4c(cc3OC(NCCO)C2C)OCO4)cc1 (configuration not stated)	False
2. O=C1Cc2c(-c3cccs3)cc(-c3ccccc3)nc2-c2ccccc2N1	False

Prompt: Record lookup: outcome of this test for O=C1C2CCCCC2C(=O)N1n1c(Cc2ccccc2)n[nH]c1=O (configuration not stated) ?
Response: False

Prompt: How did this test come out for `CCOC(=O)C(=Cn1c(=S)[nH]c2ccc([N+](=O)[O-])cc21)C(=O)OCC` ?
Response: False

Prompt: Answer briefly: the call reported for CC(C)CC(N)C(=O)NC(CNC(CCC(N)=O)C(=O)NC(CC(C)C)C(=O)NC(CC(C)C)C(=O)O)Cc1ccc2ccccc2c1 (configuration not stated) in this assay.
Response: False

Prompt: GET /call?item= COC1OC(C)C(NC(=O)OCC(Cl)(Cl)Cl)C2OC(C)(C)OC12 (configuration not stated) returns the recorded outcome of this test.
Response: False

Prompt: Kindly provide the recorded test outcome for the following molecule: CN(C)CC1CCC/C(=C\c2ccc(Cl)c(Cl)c2)C1=O (configuration not stated)
Response: False

* * *

System: SK-OV-3
Assay: NCI tumour cell line growth inhibition, 48 h
Calls of active or inactive are those of the source. No stated cut-off is given here; in the data, active = GI50 up to about 1.1 µM and inactive = higher.
Response enum: active, inactive

Would you please look over these solved cases?
1. O=C1CCCCC2N(C(c3ccccc3)c3ccccc3)CC[C@@]12c1ccccc1.O=C1CCCC[C@H]2N(C(c3ccccc3)c3ccccc3)CC[C@@]12c1ccccc1 (stereo partly drawn)	inactive
2. CN(C)c1ccc(C(c2ccc(N(C)C)cc2)c2ccc([N+](=O)[O-])cc2)cc1	inactive

Prompt: Field: outcome | Entry: COc1cccc2c1C(=O)c1c(O)c3c(c(O)c1C2=O)C[C@@](O)(C(=O)CO)C[C@@H]3OC1CC2C(OCN3CN2COC2C(C)OC(O[C@H]4C[C@](O)(C(=O)CO)Cc5c(O)c6c(c(O)c54)C(=O)c4c(OC)cccc4C6=O)CC23)C(C)O1 (stereo partly drawn)
Response: active

* * *

Test system: SNB-19
Test: NCI tumour cell line growth inhibition, 48 h
Calls of active or inactive are those of the source. No stated cut-off is given here; in the data, active = GI50 up to about 1.1 µM and inactive = higher.
Entries and their measured GI50 follow.

1) O=[PH](O)c1cccnc1	> 100 µM (inactive)

response.value for `COC(=O)c1c(OC(C)=O)ccc2c1c1c(OC(C)=O)c3ccccc3c(OC(C)=O)c1n2C` (field: GI50) = 39.4 µM (inactive)

// recorded GI50 for `CC(=O)NC1=CC(=O)c2cc(C)cc(O)c2C1=O` : 28.1 µM (inactive)

Recorded result, COC(=O)[C@]1(C)CCCC2(C)C3=C(CCC21)CC1(CC3)SCCS1 (stereo not given in full) , GI50: > 10 µM (inactive)

For `N#CC(=S)Nc1ccc(Cl)c(Cl)c1` the compound record lists GI50 as 43.8 µM (inactive)

* * *

System: A498
Assay: NCI tumour cell line growth inhibition, 48 h
The source made the active and inactive calls. Cut-off read from the data, not from the text of the source: active = GI50 up to about 1.1 µM and inactive = higher.
Could you please pick one outcome from this set? active, inactive

// known answers, use as guide
1. CC1(Br)C(=O)NC(=O)N([C@H]2C[C@H](O)[C@@H](CO)O2)C1N=[N+]=[N-] (stereo partly drawn)	inactive
2. Cc1cc2c(c3oc(C(O)(CO)C4CO4)cc(=O)c13)C(=O)c1c(O)cccc1C2=O (stereo not drawn)	active

Prompt: Short answer needed: outcome of this test for COc1ccc(N2C(=O)/C(=C\c3cccc(Oc4ccccc4)c3)SC2c2ccccc2)cc1 (stereo not drawn) ?
Response: inactive

Prompt: Query: recorded result category for COC(=O)C(/C(=N/N)C(=O)Nc1cc(Cl)c(Cl)cc1Cl)c1nc2ccc(Cl)cc2nc1O (stereo not drawn) in this test
Response: inactive

Prompt: Returns: the outcome recorded for `COc1cc2c(=O)cnoc2cc1O` in this assay.
Response: inactive

Prompt: Entry `O=C(NNC(=O)c1ccccc1O)c1cccc(Br)c1` : call = ?
Response: inactive

Prompt: Hi team, can someone confirm the assay call for `COC(=O)c1sc(=S)sc1SCc1ccccc1CSc1sc(=S)sc1C(=O)OC` ?
Response: inactive

Prompt: Outcome logged for `CCC(=O)OCN1C(=O)C=CC1=O` in this assay:
Response: inactive

Prompt: Outcome? `Cc1cc2c(cc1C)[n+]([O-])c(C(=O)/C=C/c1ccccc1[N+](=O)[O-])c(C)[n+]2[O-]`
Response: inactive

Prompt: Called result for `O=C1Cc2c(-c3cccs3)cc(-c3ccccc3)nc2-c2ccccc2N1`
Response: inactive

* * *

Tested on: HT-29
Assay: NCI tumour cell line growth inhibition, 48 h
Activity calls are given as the source filed them. No stated cut-off is given here; in the data, active = GI50 up to about 1.1 µM and inactive = higher.
Classes to choose from: yes for active, no for inactive

Use the examples below as a reference point.
1. CS(=O)(=O)CC1=Nc2nnc(CCCCCCCc3nnc4n3C(=O)C(CS(C)(=O)=O)=N4)n2C1=O	no
2. CC(C)(C)OC(=O)N1C(OP(=O)(Oc2ccccc2)Oc2ccccc2)=CSc2ccccc21	no
3. COC(=O)C1=C(O)c2ccc(Cl)cc2S(=O)(=O)N1C	no
4. c1ccc2c(c1)NCc1cc3ccccc3nc1O2	no
5. COc1cc2c(oc(=O)c3cc(C)cc(OC)c32)c2c(C3OC(C)C(O)C(C)(O)C3O)ccc(O)c12 (stereo not given)	yes

Prompt: // return assay outcome for `CC(CC(=O)O)(CC(=O)O)c1ccccc1`
Response: no

Prompt: Status in this test for `COc1ccc(/C=N/n2c(-c3ccccc3)n[nH]c2=O)c(OC)c1` ?
Response: no

Prompt: Recorded test call requested for NC1=NN(c2ccccc2)C(=O)C1C(=O)C(=O)NC1C2CC3CC(C2)CC1C3 (stereo not given)
Response: no

Prompt: Returns: the outcome recorded for CC1(C)Oc2ccc3c(=O)c4ccccc4oc3c2C1C(=O)O (stereo not given) in this assay.
Response: no

Prompt: So what was the verdict on `N#Cc1cc(-c2nc3cc(F)ccc3s2)ccc1N` in this test?
Response: no

* * *

System: SF-295
Assay: NCI tumour cell line growth inhibition, 48 h
Activity calls are given as the source filed them. Rule as the data show it: active = GI50 up to about 1.1 µM and inactive = higher.
molecules and their reported GI50

Summary for this molecule, COC(=O)C1=C(OC(=O)/C(=C/c2ccccc2)c2ccccc2)C(C(=O)OC)[C@@]2(O)[C@@H](C(=O)OC)[C@H](C)C[C@@H]1[C@@H]2C(=O)OC (some centres undefined) : GI50 is 69.7 µM (inactive)

// CCCCCC(=O)OCC1(CO)C/C(=C/CC(C(C)C)C(C)C)C(=O)O1 (centres undefined) : GI50 value = 51.1 µM (inactive)

GI50 in this record for `COc1ccc(-c2c(C#N)c(O)n(NS(=O)(=O)c3ccc(C)cc3)c(=O)c2C#N)cc1` : 75 µM (inactive)

Consider `C/C(=N\Nc1nc2ccccc2s1)c1ccncn1` . Its measured GI50 is 3.31 µM (inactive)

Looking up C/C=C/C(C#N)(/C=C/c1ccccc1)OP1(=O)OC(c2ccccc2)C(C)N1C (centres undefined) , I see its GI50 listed as 16.3 µM (inactive)

// field: GI50; key: CC[C@]1(Cc2ccc(OC)c(OC)c2)C=[N+]([O-])O[C@H](OC2CCCC2(c2ccccc2)c2ccccc2)[C@@H]1OC(C)=O (some centres undefined) ; value = 4.92 µM (inactive)

* * *

Tested on: Hs-578T
Assay: NCI tumour cell line growth inhibition, 48 h
The source made the active and inactive calls. Rule as the data show it: active = GI50 up to about 1.1 µM and inactive = higher.
Readings of GI50 for the listed compounds

1. N#CCCC(CCC#N)(CCC#N)NO	> 100 µM (inactive)

Record `CC(C)(C)/N=c1/n(C(C)(C)C)oc(=O)n1C(C)(C)C` , field GI50: > 100 µM (inactive)

Looking up CC(C)C1=CC23CCC4C(C)(C(=O)O)CCCC4(C)C2CC1C1C(=O)N(c2ccccc2N2C(=O)C4C5CC6C7(C)CCCC(C)(C(=O)O)C7CCC6(C=C5C(C)C)C4C2=O)C(=O)C13 (stereo not given) , I found its GI50 recorded as 9.55 µM (inactive)

The value of GI50 measured for the compound CCOC(=O)C1(C/C=C/CBr)CCc2ccccc2C1=O (stereo not given) turned out to be 30.8 µM (inactive)

Sample OCC(O)C(O)C(O)C(O)c1nc2cc(Cl)ccc2[nH]1 (stereo not given) ; GI50 observed: > 100 µM (inactive)

* * *

System: A498
Test: NCI tumour cell line growth inhibition, 48 h
Calls of active or inactive are those of the source. No stated cut-off is given here; in the data, active = GI50 up to about 1.1 µM and inactive = higher.
Quantity Name: GI50

Solved cases below.
1) C=C1C(=O)C([Si](C)(C)C)=C2C=C(C)C3(CC3)C12C (centres undefined)	31 µM (inactive)
2) Cn1c(=O)c(C(=O)NC(=O)OCc2ccccc2)cn(CCSCCOC(=O)NCCCCCCNC(=O)OCCSCCn2cc(C(=O)NC(=O)OCc3ccccc3)c(=O)n(C)c2=O)c1=O	> 100 µM (inactive)
3) COc1c(-c2ccc3c(c2)OCO3)oc2cc3c(c(OC)c2c1=O)OCO3	23.5 µM (inactive)
4) N[C@H](C(=O)O)[C@@H]1CC(Br)=NO1	18.1 µM (inactive)
5) O=C1c2cc(Cl)ccc2N=C(NCCCl)C2CSCN12 (centres undefined)	> 100 µM (inactive)
6) CN(C)CCCNC(=O)N/N=C/c1ccccc1	> 100 µM (inactive)
7) CC(C(=O)NCCNC(=O)CCCC(=O)N(C)O)C(=O)NCCNC(=O)CCCC(=O)N(C)O	> 100 µM (inactive)
8) Cc1ccc(N2C(=O)C(Cl)=C(Cl)C2=O)cc1	> 100 µM (inactive)

Please turn your attention to the following entry.
So for C[C@]12CC[C@@H]3c4ccc(OC(=O)c5ccccc5)cc4CC[C@H]3[C@@H]1CCC2OC(=O)c1cccc2c(=O)c3ccccc3[nH]c12 (some centres undefined) , the logged GI50 turned out to be 26 µM (inactive)
